System: SR leukemia
method_notes: NCI tumour cell line growth inhibition, 48 h
Reported TGI values for the following compounds.
measured_endpoint: TGI

compound: COc1cnc2c(c1)C(=O)c1c-2n(CCCN2CCN(C)CC2)c(=O)c2cc(Cl)ccc12
observed: 27.3 µM

compound: COc1ccc2c(c1)[n+]([O-])c(-c1nc3ccccc3s1)c(N)[n+]2[O-]
observed: > 100 µM

compound: COc1ccc(C(CC(=O)c2ccccc2)C(=O)c2ccc3c(c2)OCO3)cc1 (stereo unspecified)
observed: > 100 µM

compound: CC12CC3CC(C)(C1)CC(N=[N+]=[N-])(C3)C2
observed: > 100 µM

compound: CC(C)=CCC[C@@H](C)C1=C(Nc2ccccc2)C(O)=C(C)C(=O)C1=O
observed: 6.08 µM

compound: CN1CCN(C(=S)N(C)C(=O)c2cccs2)CC1
observed: > 100 µM
